Origin of measurements: paper PMC7738283

tested on: P30-OHK cells; assay: MTT cell viability assay, P30-OHK; assay type: cell-based; details: Homo sapiens, P30-OHK leukaemia cells, read-out: IC50 cell proliferation P30-OHK
readout_label: IC50 (µM)
Numbers only, in µM.

Query block: # get_value(readout='IC50', item= O=c1[nH]cc(F)c(=O)[nH]1 [5-Fluorouracil] )
Result block: 4.17

----------
Consider the following molecules; for each one, report its melting point.

Example molecules with recorded melting point:
molecule: CCN1CCN(C(=S)SCC(=O)Nc2ccc(C(=O)/C=C/c3cccc(F)c3)cc2)CC1 [D5]
melting point: 136 to 138 °C
--
molecule: CCN1CCN(C(=S)SCC(=O)Nc2ccc(C(=O)/C=C/c3ccc(F)cc3)cc2)CC1 [D1]
melting point: 182 to 184 °C
--
molecule: O=C(CCl)Nc1ccc(C(=O)/C=C/c2ccccc2)cc1 [C1]
melting point: 145 to 147 °C

Consider the following items and state reported melting point for each.
1. O=C(CCl)Nc1ccc(C(=O)/C=C/c2ccccc2F)cc1 [C3]
2. CCN1CCN(C(=S)SCC(=O)Nc2ccc(C(=O)/C=C/c3ccccc3)cc2)CC1 [D3]
3. O=C(CCl)Nc1ccc(C(=O)/C=C/c2cccc(F)c2)cc1 [C2]

Result block:
1: 167 to 169 °C; 2: 181 to 183 °C; 3: 156 to 158 °C
